Quick reference for growth among some molecules
- Tested on: MOLT-4 leukemia
- Measurement Description: NCI-60 one-dose screen, 48 h (100 = growth as untreated, 0 = no growth, -100 = all killed)
- Measurement Context: 10 µM unless noted
The panel holds about 83,000 compounds, 20% with a hit somewhere; the sample as a whole holds those more often. The source made the active and inactive calls. How the source made its calls: active means growth percent below 10; inactive means the rest.

These solved cases illustrate the format of a correct answer.
The value of growth measured for the molecule "COc1cc(Cn2ccc3c2-c2oncc2CC3)cc(OC)c1" turned out to be 38.4% (inactive)

The value of growth measured for the molecule "Nc1ccc(N=Nc2ccccc2)c2cc(S(=O)(=O)O)ccc12" turned out to be 106% (inactive)

The value of growth measured for the molecule "NC(N)=Nc1ccc(/C=C2\C=Cc3ccccc32)cc1" turned out to be 37.2% (inactive)

The value of growth measured for the molecule "CCOC(=O)CNS(=O)(=O)CC(=O)c1ccccc1" turned out to be 109% (inactive)

New cases:
The value of growth measured for the molecule "COc1cc2c(c3c1c(=O)c1cccc(F)c1n3C)C=CC(C)(C)O2" turned out to be 85.2% (inactive)

The value of growth measured for the molecule "CSCc1ncc(-c2ccc(C(F)(F)F)cc2)c(NC2CCCCCC2)n1" turned out to be 23% [25 µM] (inactive)

The value of growth measured for the molecule "CC[C@H](Nc1ncnc2nc[nH]c12)c1nc2cccc(NCc3ccc(C(=O)NO)o3)c2c(=O)n1-c1ccccc1" turned out to be 97.8% (inactive)

The value of growth measured for the molecule "O=C(N/N=C/c1cc(Cl)ccc1O)C(=O)N/N=C/c1cc(Cl)ccc1O" turned out to be 55.9% (inactive)

The value of growth measured for the molecule "Cn1c2ccccc2c2ccccc21" turned out to be 89.7% (inactive)

The value of growth measured for the molecule "Cn1cnc2nc[nH]c2c1=S" turned out to be 102% (inactive)

The value of growth measured for the molecule CCC1(CC)C(OC)NC(Br)=C(C#N)C1(C#N)C(N)=O (stereo unspecified) turned out to be 88.4% (inactive)

* * *

- Test system: SK-MEL-5 melanoma
- Measurement Description: NCI-60 one-dose screen, 48 h (100 = growth as untreated, 0 = no growth, -100 = all killed)
- Measurement Context: 10 µM unless noted
This is part of a sample that, as a whole, favours compounds with a hit. Of some 83,000 tested, about 20% had one in any assay.
Quick reference for growth among some compounds
Kindly answer with a numeric value in %, unit omitted.

These solved cases illustrate the format of a correct answer.
The value of growth measured for the compound "COC(=O)c1cc(=O)nc(N/N=C/c2ccccc2O)s1" turned out to be 91.6

The value of growth measured for the compound "Cc1nc2c(nnn2-c2ccccc2)c2nc(-c3ccc(Cl)cc3)oc(=O)c12" turned out to be 103

The value of growth measured for the compound "CC(=O)Nc1nc(C)c(C(=O)N/N=C/N2CCOCC2)s1" turned out to be 112

The value of growth measured for the compound "CC[C@H](Nc1ncnc2nc[nH]c12)c1nc2cccc(NCc3ccc(C(=O)NO)o3)c2c(=O)n1-c1ccccc1" turned out to be 101

New cases:
The value of growth measured for the compound "Clc1ccc(N/N=C(\c2ccccc2)c2ccccn2)nc1" turned out to be -36

The value of growth measured for the compound "CC(=O)NCCN" turned out to be 108

The value of growth measured for the compound "CC(C)(C)OC(=O)N1C/C(=C\c2ccccc2)C(=O)/C(=C/c2ccccc2)C1" turned out to be 108

The value of growth measured for the compound "C/C=C/C/C=C/[C@H](C)C[C@H](O)[C@@H]1C[C@@H]2O[C@H]2/C=C/[C@@H]2OC(C)(C)O[C@H]2/C=C/C[C@H](C)CC(=O)O1" turned out to be 31

The value of growth measured for the compound "O=C(CCl)c1ccc2c(c1)CCCC2" turned out to be 106

The value of growth measured for the compound "Oc1ccccc1/C=N/N=C/c1c(O)ccc2ccccc12" turned out to be 93.1
